Experiment: Drug level in Escherichia coli UTI89-infected CBA/J mouse urine at 700 ug/kg, po after 2 hrs
Format: ADME, organism-based
Details: in vivo, 0.7 mg/kg
Measured Quantity: Drug uptake (µg/mL)

{"Molecule Smiles": "C[C@@H]1CN(c2c(F)c(N)c3c(=O)c(C(=O)O)cn(C4CC4)c3c2F)C[C@H](C)N1", "Readout Units": "µg/mL", "Reported": 0.3}

---

Test system: 5637
Assay: Cytotoxicity against human 5637 cells assessed as mild induction of cell death by LDH release assay
Type: cell-based

{"Compound": "CCn1cc(C(=O)O)c(=O)c2ccc(C)nc21", "Activity": "Toxic"}
{"Compound": "C[C@@H]1O[C@@H]1P(=O)(O)O", "Activity": "Toxic"}
{"Compound": "CC1COc2c(N3CCN(C)CC3)c(F)cc3c(=O)c(C(=O)O)cn1c23 (stereo not drawn)", "Activity": "Toxic"}
